METHOD SUMMARY: In vivo single-dose PK, plasma HPLC-MS/MS
Set-up: species or system NSG mice
CONDITION INFO: NOD-scid IL2Rgamma-null (NSG), mouse, po, measured drug given in combination with the other, Buparlisib 30 mg/Kg + WNT974 3 mg/Kg
PROPERTY LABEL: Tmax (h)

* Cc1cc(-c2ncc(CC(=O)Nc3ccc(-c4cnccn4)cn3)cc2C)ccn1 | 1
* Nc1cc(C(F)(F)F)c(-c2cc(N3CCOCC3)nc(N3CCOCC3)n2)cn1 | 2

----------
METHOD SUMMARY: In vivo single-dose PK, plasma HPLC-MS/MS
Design: species or system NSG mice
CONDITION INFO: NOD-scid IL2Rgamma-null (NSG), mouse, po, drug given alone, Buparlisib 30 mg/Kg, WNT974 3 mg/Kg, read-out: Vdss/F
PROPERTY LABEL: Vd/F (L)

- Cc1cc(-c2ncc(CC(=O)Nc3ccc(-c4cnccn4)cn3)cc2C)ccn1 [WNT974]: 0.24
- Nc1cc(C(F)(F)F)c(-c2cc(N3CCOCC3)nc(N3CCOCC3)n2)cn1 [Buparlisib]: 0.15

----------
METHOD SUMMARY: In vivo single-dose PK, plasma HPLC-MS/MS
Parameters: species or system NSG mice
CONDITION INFO: NOD-scid IL2Rgamma-null (NSG), mouse, po, measured drug given in combination with the other, Buparlisib 30 mg/Kg + WNT974 3 mg/Kg
PROPERTY LABEL: Cmax (ng/mL)

* Cc1cc(-c2ncc(CC(=O)Nc3ccc(-c4cnccn4)cn3)cc2C)ccn1 | 143
* Nc1cc(C(F)(F)F)c(-c2cc(N3CCOCC3)nc(N3CCOCC3)n2)cn1 | 2850

----------
METHOD SUMMARY: In vivo single-dose PK, plasma HPLC-MS/MS
Set-up: species or system NSG mice
CONDITION INFO: NOD-scid IL2Rgamma-null (NSG), mouse, po, drug given alone, Buparlisib 30 mg/Kg, WNT974 3 mg/Kg
Entries and their half-life
PROPERTY LABEL: half-life (h)

* Nc1cc(C(F)(F)F)c(-c2cc(N3CCOCC3)nc(N3CCOCC3)n2)cn1 | 3
* Cc1cc(-c2ncc(CC(=O)Nc3ccc(-c4cnccn4)cn3)cc2C)ccn1 | 2.1

----------
Entries and their Tmax
METHOD SUMMARY: In vivo single-dose PK, plasma HPLC-MS/MS
Parameters: species or system NSG mice
CONDITION INFO: NOD-scid IL2Rgamma-null (NSG), mouse, po, drug given alone, Buparlisib 30 mg/Kg, WNT974 3 mg/Kg
PROPERTY LABEL: Tmax (h)

* Cc1cc(-c2ncc(CC(=O)Nc3ccc(-c4cnccn4)cn3)cc2C)ccn1 | 1
* Nc1cc(C(F)(F)F)c(-c2cc(N3CCOCC3)nc(N3CCOCC3)n2)cn1 | 1

----------
Entries and their half-life
METHOD SUMMARY: In vivo single-dose PK, plasma HPLC-MS/MS
Design: species or system NSG mice
CONDITION INFO: NOD-scid IL2Rgamma-null (NSG), mouse, po, measured drug given in combination with the other, Buparlisib 30 mg/Kg + WNT974 3 mg/Kg
PROPERTY LABEL: half-life (h)

* Nc1cc(C(F)(F)F)c(-c2cc(N3CCOCC3)nc(N3CCOCC3)n2)cn1 [Buparlisib] | 2.8
* Cc1cc(-c2ncc(CC(=O)Nc3ccc(-c4cnccn4)cn3)cc2C)ccn1 [WNT974] | 3
